// reported Kd for each item listed
B1: scFv; the commonest letter at each place (parent)
chain 1: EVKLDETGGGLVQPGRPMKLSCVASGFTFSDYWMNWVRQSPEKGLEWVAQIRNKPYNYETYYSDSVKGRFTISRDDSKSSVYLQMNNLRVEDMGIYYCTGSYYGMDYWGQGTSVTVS
chain 2: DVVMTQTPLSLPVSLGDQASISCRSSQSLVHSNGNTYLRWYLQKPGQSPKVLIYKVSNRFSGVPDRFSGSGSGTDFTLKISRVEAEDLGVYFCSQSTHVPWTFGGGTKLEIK

# Variants of: B1
# Assay Name: Kd (Tite-Seq)
# Run Conditions: with fluorescein; format: scFv 4-4-20, heavy + light

These solved cases illustrate the format of a correct answer.
Mutation Spec	Kd
chain 1 S101I M105N	≥ 10 µM
chain 1 S101C G104N G109R	≥ 10 µM
chain 1 G100R W108N	≥ 10 µM
chain 1 S30Y M34H	≥ 10 µM
chain 1 T28N	0.00121 µM

Please fill in: Kd reported for chain 1 Y107P W108A = ≥ 10 µM

Just so you know, measured Kd for chain 1 M34I came out at 0.00273 µM

The variant identified as chain 1 D31N Y32M registered its Kd at 0.00672 µM

// field: Kd; key: chain 1 S101R D106T ; value = ≥ 10 µM

Lab note: chain 1 G100I G109I gave Kd of ≥ 10 µM

Form field Kd, entry chain 1 M105P G109T : ≥ 10 µM

Data provenance: the FLAb antibody collection (doi:10.7554/elife.23156)
